TARGET_SYSTEM: bacterial protein synthesis (S30 extract from quinolone-succeptable Streptococcus pneumoniae ATCC 46919)
METHOD_NOTES: Translation assay, firefly luciferase reporter system with S30 Streptococcus pneumoniae extract
CONDITION_DETAILS: cell-free S30 Streptococcus pneumoniae extract, luciferase mRNA; read-out: IC50, concentration which caused 50% inhibition of bacterial protein synthesis
MEASURED_ATTRIBUTE: IC50

Please fill in: IC50 reported for CC(=O)NC[C@H]1CN(c2ccc(N3CCOCC3)c(F)c2)C(=O)O1 [Linezolid] = ~3000 nM

The reported numbers originate from patent US8163769B2.
